- System: Rattus norvegicus
- testMethodNotes: Plasma concentration in rat at 20 mg/kg, po; further: time not given here
- Format: ADME, organism-based
- Design: dose 20 mg/kg, route oral
- testParameters: in vivo
Assignment: determine reported Cp for the given molecules.
One number for each entry, in ng/mL.

Form: molecule = C#CCN1CCC(C(=O)NO)(S(=O)(=O)c2ccc(Oc3ccc4c(c3)OCO4)cc2)CC1 ; Cp = 134

Form: molecule = O=C(NO)C1(S(=O)(=O)c2ccc(Oc3ccc4c(c3)OCO4)cc2)CCN(C2CC2)CC1 ; Cp = 206

Next molecule, please.
Form: molecule = COCCN1CCC(C(=O)NO)(S(=O)(=O)c2ccc(Oc3ccc(OC(F)(F)F)cc3)cc2)CC1 ; Cp = 20521
